- procedureDetails: Restrictive medium S. cerevisiae growth inhibition, OD615, pilot screen of yeast lifespan reduction project, restrictive growth control (AID 706);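 note: modified DeaD lifespan yeast strain shifted to restrictive glucose medium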
- conditionContext: OD615, 48 h, at 10 µM, active compounds read high
readoutType: growth inhibition (%)
Give bare numbers, in %.

Example entries begin here.
compound	unitAbbreviation	growth inhibition
O=C(Nc1ccc(Br)cc1F)C1CCCN(S(=O)(=O)c2cnc[nH]2)C1 (configuration not stated)	%	-10.9
O=C(NCCc1csc(-c2cccnc2)n1)c1ccc(Br)o1	%	10.1
Cc1ccc(C(=O)c2ccccc2C(=O)O)c(O)c1	%	-4.92
CCCSC1=N/C(=C\c2ccsc2)C(=O)S1	%	-3.12
COc1ccc(OC)c(C2NC(=O)NC(C)=C2C(=O)Nc2ccc(C)cc2C)c1 (configuration not stated)	%	4.14
COc1cc2c(cc1OC)C(C(=O)N1CCCC1)C(c1ccccc1F)N(C)C2=O (configuration not stated)	%	-16.3
Clc1cc(NCc2cccs2)ccc1N1CCOCC1	%	-6.34
Cc1cccc(OCc2nc(C#N)c(N3CC(C)CC(C)C3)o2)c1 (configuration not stated)	%	-2.89
Cc1ccc(-c2nc(NC(=O)CSc3nnc4scc(-c5ccccc5)n34)ns2)cc1	%	0.99
CNC(=O)c1nnc(Cc2ccc(F)cc2)o1	%	1.31

Batch request: growth inhibition for each of the following compounds.
1. Cc1ccc(-c2nn3c(C)nnc3s2)cc1NC(=O)COc1ccc(Cl)cc1
2. COc1ccc(NC(=O)N(Cc2cccnc2)Cc2ccccc2Cl)c(OC)c1
3. O=C(CC1SC(=Nc2ccccc2)N(CCCO)C1=O)Nc1ccc(Cl)cc1 (configuration not stated)
4. Cn1c(SCC(=O)Nc2cc(=O)n(C)c(=O)n2C)nnc1C12CC3CC(CC(C3)C1)C2
5. CCC(=O)N=c1sc2c(C)cc(C)cc2n1CC(=O)OC
6. COc1ccc(C(=S)N(C)C)cc1OC

1. 25.3
2. -1.88
3. -7.97
4. 12.8
5. -16.1
6. 16.9

Batch request: growth inhibition for each of the following compounds.
1. O=C1C=C(N(CCO)CCO)C2(CCCCC2)O1
2. CN1CCN(S(=O)(=O)c2ccc3ccccc3c2)CC1
3. O=C(O)CC1C(=O)NCCN1CCCc1ccccc1 (configuration not stated)
4. COc1ccc(CCNC(=O)c2c(-c3ccccc3)noc2C)cc1OC
5. O=C(c1cc2nc(-c3ccco3)cc(C(F)(F)F)n2n1)N1CCCCCC1
6. COc1cc(C(=O)NCc2ccco2)c(Br)c(OC)c1OC
7. Cc1cc(C)c(S(=O)(=O)Nc2ccc(OCC(=O)O)cc2)c(C)c1
8. CCCCNc1ncnc2c1cnn2-c1ccc(Cl)cc1

1. -18.7
2. -1.93
3. -8.64
4. -2.27
5. -9.3
6. -12.5
7. -3.2
8. -18.1

Batch request: growth inhibition for each of the following compounds.
1. C=CCSc1nnc(Cn2c(=O)sc3ccccc32)n1C
2. CCc1ncc(C(=O)c2ccc(OC)cc2)n1C
3. O=C(c1cccc(C(=O)N2CCc3ccccc32)n1)N1CCc2ccccc21
4. COC(=O)C(C)n1cnc2c(nnn2-c2cccc(Cl)c2)c1=O (configuration not stated)
5. CCOC(=O)c1cc(-c2ccc(C)cc2)n(CC(=O)NCc2ccco2)c1C
6. O=C(Cc1cc(=O)[nH]c(=O)[nH]1)N1CCN(C(=O)c2ccco2)CC1

1. -8.71
2. -0.315
3. -3.99
4. 1.2
5. -7.09
6. -26.6

Batch request: growth inhibition for each of the following compounds.
1. COc1cccc(C(c2sc3ncnn3c2O)N2CCc3ccccc3C2)c1 (configuration not stated)
2. COC(=O)c1sc(NC(=O)C2CCCCC2C(=O)O)c(C(=O)OC)c1C (configuration not stated)

2.29
0.13

These data points were gathered from PubChem BioAssay.
